Where a name gives a salt, the structure may show the parent alone.
Parameter: melting point. Scope: all listed entries.

Some entries whose results are on file:
Cc1ccc(OCCCN2CCN(c3cccc4sccc34)CC2)cn1 (as salt: hydrochloride) [Example 40] = 234 to 236 °C
COc1cc(CN(C)C)ccc1OCCCN1CCN(c2cccc3sccc23)CC1 [Example 301] = 101 to 103 °C
O=c1[nH]cnc2ccc(OCCCN3CCN(c4cccc5sccc45)CC3)cc12 [Example 94] = 213.1 to 218.5 °C
CNC(=O)c1ccc(OCCCN2CCN(c3cccc4sccc34)CC2)nc1 [Example 27] = 132.5 to 133.5 °C
COc1cc(N2CCCC2)cc(C)c1OCCCN1CCN(c2cccc3sccc23)CC1 (as salt: hydrochloride) [Example 1076] = 246.5 to 249 °C (dec.)

Reported melting point ( CNC(=O)c1cc(OCCCN2CCN(c3cccc4sccc34)CC2)n(C)n1.Cl [Example 3] ) = 228 to 232.5 °C (dec.)

Reported melting point ( CN(C)Cc1ccc(OCCCN2CCN(c3cccc4sccc34)CC2)c(Cl)c1 (as salt: hydrochloride) [Example 303] ) = 259 °C (dec.)

Reported melting point ( CNC(=O)c1ccc(OCCCCN2CCN(c3cccc4sccc34)CC2)cc1 [Example 170] ) = 154 to 156 °C

----------
biological target: Dopamine D2 receptor (Rattus norvegicus, UniProt P61169); assay: Dopamine D2 receptor binding assay ([3H]-raclopride); conditions: Dopamine D2 receptor binding test, rat corpus striatum membrane, Ki calculated from IC50 by Cheng-Prussoff formula
Sequence (P61169 whole entry): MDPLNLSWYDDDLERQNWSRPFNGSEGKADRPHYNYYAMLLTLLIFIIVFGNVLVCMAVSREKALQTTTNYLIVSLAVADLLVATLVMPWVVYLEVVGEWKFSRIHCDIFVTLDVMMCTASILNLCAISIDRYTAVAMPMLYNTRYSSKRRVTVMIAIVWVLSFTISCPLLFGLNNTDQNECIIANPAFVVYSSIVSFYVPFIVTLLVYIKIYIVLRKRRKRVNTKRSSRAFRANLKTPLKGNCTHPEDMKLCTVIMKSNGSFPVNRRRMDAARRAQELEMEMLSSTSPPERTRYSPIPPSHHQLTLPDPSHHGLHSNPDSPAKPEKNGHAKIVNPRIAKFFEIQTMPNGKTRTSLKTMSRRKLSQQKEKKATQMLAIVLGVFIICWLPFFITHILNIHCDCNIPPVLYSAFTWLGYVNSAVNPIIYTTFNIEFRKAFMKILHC
pKi: −log10 of the molar value.
property: pKi

Some entries whose results are on file:
c1cc(N2CCN(CCCCOc3ccncc3)CC2)c2ccsc2c1 = 8.80
CN(C)C(=O)c1csc(OCCCN2CCN(c3cccc4sccc34)CC2)n1 = 9.15

(1) CCN(C)Cc1ccc(OCCCN2CCN(c3cccc4sccc34)CC2)c(C)c1
(2) CN1CCN(Cc2ccc(OCCCN3CCN(c4cccc5sccc45)CC3)cc2)CC1
Returns: the label, 1 or 2 , whose recorded pKi is the lower number. Mark your selection by writing its label.
2

----------
Counter-ions that a name gives are not always drawn.
Parameter: melting point. Scope: all listed entries.

CCS(=O)(=O)Nc1cc(C)c(OCCCN2CCN(c3cccc4sccc34)CC2)c(OC)c1.Cl = 235.5 to 237.5 °C

Here is the next item to consider.
Reported melting point ( CC(=O)Nc1ccc(OCCCN2CCN(c3cccc4sccc34)CC2)cc1 (as salt: hydrochloride) ) = 283 to 285 °C

----------
target: Dopamine D2 receptor (Rattus norvegicus, UniProt P61169); test: Dopamine D2 receptor binding assay ([3H]-raclopride); settings: Dopamine D2 receptor binding test, rat corpus striatum membrane, Ki calculated from IC50 by Cheng-Prussoff formula
property: Ki (nM)

Some entries whose results are on file:
CC(=O)Nc1cc(OCCCN2CCN(c3cccc4sccc34)CC2)n(C)n1 = 1
COc1cc(N2CCN(C(C)=O)CC2)cc(CO)c1OCCCN1CCN(c2cccc3sccc23)CC1 = 0.1
CNC(=O)c1csc(OCCCN2CCN(c3cccc4sccc34)CC2)n1.Cl [Example 6, hydrochloride] = 0.7
COc1cc(NC(=O)CNC(=O)OC(C)(C)C)cc(C)c1OCCCN1CCN(c2cccc3sccc23)CC1 = 0.4
COc1cc(N2CCN(C(C)=O)CC2=O)cc(C)c1OCCCN1CCN(c2cccc3sccc23)CC1 = 0.4
NC(=O)c1ccc(F)c(OCCCN2CCN(c3cccc4sccc34)CC2)c1 = 1.2
CNC(=O)c1ccc(OCCCN2CCN(c3cccc4sccc34)CC2)nc1 = 1.5
O=C(c1ccc(OCCCN2CCN(c3cccc4sccc34)CC2)cc1)N1CCN(c2ccncc2)CC1 = 1
CN1Cc2ccc(OCCCN3CCN(c4cccc5sccc45)CC3)cc2C1=O = 0.7
CN1CC(=O)N(C)c2ccc(OCCCN3CCN(c4cccc5sccc45)CC3)cc2C1=O = 2.1

(a) Cn1cnc2ccc(OCCCN3CCN(c4cccc5sccc45)CC3)cc2c1=O
(b) O=C1Cc2ccc(OCCCCN3CCN(c4cccc5sccc45)CC3)cc2N1
Returns: the label, a or b , whose recorded Ki is the lower number. Mark your selection by writing its label.
b

----------
Counter-ions that a name gives are not always drawn.
property: melting point

Some entries whose results are on file:
CNC(=O)c1csc(OCCCN2CCN(c3cccc4sccc34)CC2)n1.Cl = 199.5 to 202.5 °C
CN1CCN(Cc2ccc(OCCCN3CCN(c4cccc5sccc45)CC3)cc2)CC1 (as salt: hydrochloride) = 261.5 °C (dec.)

Reported melting point ( `CNC(=O)c1cc(C)c(OCCCN2CCN(c3cccc4sccc34)CC2)c(C)c1` ) = 152.5 to 154.5 °C

Reported melting point ( CCNC(=O)c1cc(OCCCN2CCN(c3cccc4sccc34)CC2)no1 (as salt: hydrochloride) ) = 219.5 to 222.5 °C (dec.)

Reported melting point ( `NC(=O)Cc1ccc(OCCCN2CCN(c3cccc4sccc34)CC2)cc1` ) = 149.5 to 150.5 °C

Reported melting point ( `CNC(=O)c1ccc(OCCCN2CCN(c3cccc4sccc34)CC2)c(C)c1` ) = 156.5 to 158 °C

Reported melting point ( `CCNC(=O)Cc1ccc(OCCCN2CCN(c3cccc4sccc34)CC2)cc1` ) = 112.5 to 113.5 °C

Reported melting point ( `COc1cc(N(C)C)cc(C)c1OCCCN1CCN(c2cccc3sccc23)CC1.Cl` ) = 234.5 to 240.5 °C (dec.)

----------
Structures can show the parent of a compound that is named as a salt.
Parameter: melting point. Scope: all listed entries.

Some entries whose results are on file:
O=C1Cc2ccc(OCCCCN3CCN(c4cccc5sccc45)CC3)cc2N1 (as salt: hydrochloride) = 215 to 217 °C
CN(C)C(=O)Nc1cc(OCCCN2CCN(c3cccc4sccc34)CC2)n(C)n1.Cl = 174 to 176.5 °C
COc1cc(N2CCN(C(C)=O)CC2)cc(CO)c1OCCCN1CCN(c2cccc3sccc23)CC1 (as salt: hydrochloride) = 217.5 to 221 °C
COc1cc(N2CCN(C(C)=O)CC2=O)cc(C)c1OCCCN1CCN(c2cccc3sccc23)CC1 (as salt: hydrochloride) = 218 to 221.5 °C
COc1cc(N2CCCCC2)cc(C)c1OCCCN1CCN(c2cccc3sccc23)CC1 (as salt: hydrochloride) = 248 to 251 °C (dec.)

Reported melting point ( CNC(=O)c1cc(OCCCN2CCN(c3cccc4sccc34)CC2)ncn1 (as salt: hydrochloride) ) = 205 to 209.5 °C

Reported melting point ( CCN(CC)CCc1ccc(OCCCN2CCN(c3cccc4sccc34)CC2)cc1 (as salt: hydrochloride) ) = 224 to 232 °C (dec.)

Reported melting point ( `NC(=O)c1cc(OCCCN2CCN(c3cccc4sccc34)CC2)ccn1` ) = 150 to 150.5 °C

Reported melting point ( CCNCc1ccc(OCCCN2CCN(c3cccc4sccc34)CC2)cc1 (as salt: hydrochloride) ) = 228 to 241 °C (dec.)

Reported melting point ( `Cn1nc(C(=O)O)cc1OCCCN1CCN(c2cccc3sccc23)CC1` ) = 114.5 to 118 °C

Reported melting point ( O=C1Nc2cc(OCCCCN3CCN(c4cccc5sccc45)CC3)ccc2CO1 (as salt: hydrochloride) ) = 253 to 258 °C (dec.)

Reported melting point ( COc1cc(N2CCOC2=O)cc(CO)c1OCCCN1CCN(c2cccc3sccc23)CC1 (as salt: hydrochloride) ) = 224 to 226.5 °C (dec.)

Reported melting point ( `Cl.c1cc(N2CCN(CCCOc3ccc4c(c3)NCCO4)CC2)c2ccsc2c1` ) = 207.9 to 208.8 °C

Reported melting point ( CCNC(=O)c1cc(OCCCN2CCN(c3cccc4sccc34)CC2)n(C)n1 (as salt: hydrochloride) ) = 210.5 to 214.5 °C

Reported melting point ( COc1cc(NC=O)cc(C)c1OCCCN1CCN(c2cccc3sccc23)CC1 (as salt: hydrochloride) ) = 247.5 to 253 °C (dec.)
